Data credit: paper PMC6377682

B1: human ASPP2^920-1120 [human] / human PP1β^6-327 [human] (parent complex)
chain 1: MRVKFNPLALLLDSSLEGEFDLVQRIIYEVDDPSLPNDEGITALHNAVCAGHTEIVKFLVQFGVNVNAADSDGWTPLHCAASCNNVQVCKFLVESGAAVFAMTYSDMQTAADKCEEMEEGYTQCSQFLYGVQEKMGIMNKGVIYALWDYEPQNDDELPMKEGDCMTIIHREDEDEIEWWWARLNDKEGYVPRNLLGLYPRI
chain 2: LNVDSLITRLLEVRGCRPGKIVQMTEAEVRGLCIKSREIFLSQPILLELEAPLKICGDIHGQYTDLLRLFEYGGFPPEANYLFLGDYVDRGKQSLETICLLLAYKIKYPENFFLLRGNHECASINRIYGFYDECKRRFNIKLWKTFTDCFNCLPIAAIVDEKIFCCHGGLSPDLQSMEQIRRIMRPTDVPDTGLLCDLLWSDPDKDVQGWGENDRGVSFTFGADVVSKFLNRHDLDLICRAHQVVEDGYEFFAKRQLVTLFSAPNYCGEFDNAGGMMSVDETLMCSFQILKPSEKKAKYQYGGLNSGRPVTPPRTANPPKKR

Variants of: B1
Assay: BLI
Assign Kd to each entry below.
Write the figure, then the unit, nothing else.

INPUT: Consider the variant chain 1 E171K, chain 1 D174S and give its measured Kd.
OUTPUT: 178 nM

INPUT: Now this one: chain 1 D174S
OUTPUT: 136 nM
